- Assay Name: Half life in rat at 3 mg/kg, iv
- Format: ADME, organism-based
- Design: dose 3 mg/kg, route intravenous
- Assay Context: in vivo
Readings of half-life for the listed molecules
Value Kind: half-life (min)

1) COc1cccc(-c2c(C)n(Cc3c(F)cccc3C(F)(F)F)c(=O)n(C[C@H](NCCCC(=O)[O-])c3ccccc3)c2=O)c1F.[Na+] [ELAGOLIX SODIUM]
54
2) COc1cccc(-c2c(C)n(Cc3c(F)cccc3C(F)(F)F)c(=O)n(C[C@@H](c3ccccc3)N(C)CCCC(=O)O)c2=O)c1F
156
3) COc1cccc(-c2c(C)n(Cc3c(F)cccc3F)c(=O)n(C[C@H](NCCCC(=O)O)c3ccccc3)c2=O)c1F
270

---

This listing pairs compounds with measured IC50.
- Target Entity: Gonadotropin-releasing hormone receptor (Homo sapiens, UniProt P30968)
- Sequence (P30968 whole entry): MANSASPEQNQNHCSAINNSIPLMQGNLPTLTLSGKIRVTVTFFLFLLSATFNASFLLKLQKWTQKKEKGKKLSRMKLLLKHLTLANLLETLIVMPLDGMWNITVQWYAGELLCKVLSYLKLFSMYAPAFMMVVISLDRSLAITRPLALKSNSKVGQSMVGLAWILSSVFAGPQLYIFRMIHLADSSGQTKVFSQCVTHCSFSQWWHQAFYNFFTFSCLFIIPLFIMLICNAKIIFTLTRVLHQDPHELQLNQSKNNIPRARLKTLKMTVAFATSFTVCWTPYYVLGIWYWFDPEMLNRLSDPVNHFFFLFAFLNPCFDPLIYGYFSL
- Assay Name: Antagonist activity at human GnRH receptor expressed in RBL1 cells assessed as inhibition of GnRH-stimulated inositol phosphate production
Value Kind: IC50 (nM)

1) COc1cccc(-c2c(C)n(Cc3c(F)cccc3F)c(=O)n(C[C@H](NCCCC(=O)O)c3ccccc3)c2=O)c1F
27
2) COc1cccc(-c2c(C)n(Cc3c(F)cccc3C(F)(F)F)c(=O)n(C[C@H](N)c3ccccc3)c2=O)c1F
0.5
3) COc1cccc(-c2c(C)n(Cc3c(F)cccc3Cl)c(=O)n(C[C@H](NCCCC(=O)O)c3ccccc3)c2=O)c1F
3.2
4) COc1cccc(-c2c(C)n(Cc3c(F)cccc3C(F)(F)F)c(=O)n(C[C@H](NCCCC(=O)[O-])c3ccccc3)c2=O)c1F.[Na+] [ELAGOLIX SODIUM]
1.5

---

- Assay Name: Cmax in rat at 3 mg/kg, iv
- Format: ADME, organism-based
- Parameters: dose 3 mg/kg, route intravenous
- Assay Context: in vivo
Value Kind: Cmax (µg/mL)

1. COc1cccc(-c2c(C)n(Cc3c(F)cccc3C(F)(F)F)c(=O)n(C[C@H](NCCCC(=O)[O-])c3ccccc3)c2=O)c1F.[Na+] [ELAGOLIX SODIUM]
0.338
2. COc1cccc(-c2c(C)n(Cc3c(F)cccc3C(F)(F)F)c(=O)n(C[C@@H](c3ccccc3)N(C)CCCC(=O)O)c2=O)c1F
0.592
3. COc1cccc(-c2c(C)n(Cc3c(F)cccc3F)c(=O)n(C[C@H](NCCCC(=O)O)c3ccccc3)c2=O)c1F
0.025

---

- Assay Name: AUC in mouse
- Type: ADME, organism-based
- Assay Context: plasma
Value Kind: AUC (ng·h/mL)

1) COc1cccc(-c2c(C)n(Cc3c(F)cccc3C(F)(F)F)c(=O)n(C[C@H](NCCCC(=O)[O-])c3ccccc3)c2=O)c1F.[Na+] [ELAGOLIX SODIUM]
326

---

- Target Entity: Gonadotropin-releasing hormone receptor (Macaca mulatta, UniProt Q8SPZ1)
- Sequence (Q8SPZ1 whole entry): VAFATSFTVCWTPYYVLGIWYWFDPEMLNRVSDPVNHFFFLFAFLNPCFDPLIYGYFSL
pKi: −log10 of the molar value.
Value Kind: pKi

1) COc1cccc(-c2c(C)n(Cc3c(F)cccc3C(F)(F)F)c(=O)n(C[C@H](NCCCC(=O)[O-])c3ccccc3)c2=O)c1F.[Na+] [ELAGOLIX SODIUM]
8.48

---

bioavailability for assorted compounds
- Assay Name: Bioavailability in rat at 3 mg/kg, iv
- Assay type: ADME, organism-based
- Assay Context: in vivo
Value Kind: bioavailability (%)

1. COc1cccc(-c2c(C)n(Cc3c(F)cccc3F)c(=O)n(C[C@H](NCCCC(=O)O)c3ccccc3)c2=O)c1F
1.1
2. COc1cccc(-c2c(C)n(Cc3c(F)cccc3C(F)(F)F)c(=O)n(C[C@@H](c3ccccc3)N(C)CCCC(=O)O)c2=O)c1F
3.7
3. COc1cccc(-c2c(C)n(Cc3c(F)cccc3C(F)(F)F)c(=O)n(C[C@H](NCCCC(=O)[O-])c3ccccc3)c2=O)c1F.[Na+] [ELAGOLIX SODIUM]
5.8

---

- Assay Name: AUC in Beagle dog at 50 mg/kg, po
- Type: ADME, organism-based, Canis lupus familiaris
- Parameters: dose 50 mg/kg, route oral
- Assay Context: plasma
Value Kind: AUC (ng·h/mL)

1. COc1cccc(-c2c(C)n(Cc3c(F)cccc3C(F)(F)F)c(=O)n(C[C@H](NCCCC(=O)[O-])c3ccccc3)c2=O)c1F.[Na+] [ELAGOLIX SODIUM]
80700

---

- Assay Name: Tmax in mouse
- Assay type: ADME, organism-based
- Assay Context: in vivo
Value Kind: Tmax (min)

1. COc1cccc(-c2c(C)n(Cc3c(F)cccc3C(F)(F)F)c(=O)n(C[C@H](NCCCC(=O)[O-])c3ccccc3)c2=O)c1F.[Na+] [ELAGOLIX SODIUM]
15

---

Each item that follows carries a reported AUC.
- Assay Name: AUC in rat at 3 mg/kg, iv
- Assay type: ADME, organism-based, Plasma
- Design: dose 3 mg/kg, route intravenous
- Assay Context: plasma
Value Kind: AUC (ng·h/mL)

1) COc1cccc(-c2c(C)n(Cc3c(F)cccc3C(F)(F)F)c(=O)n(C[C@H](NCCCC(=O)[O-])c3ccccc3)c2=O)c1F.[Na+] [ELAGOLIX SODIUM]
290
2) COc1cccc(-c2c(C)n(Cc3c(F)cccc3C(F)(F)F)c(=O)n(C[C@@H](c3ccccc3)N(C)CCCC(=O)O)c2=O)c1F
385

---

- Assay Name: Plasma clearance in Beagle dog at 50 mg/kg, po
- Format: ADME, organism-based, Canis lupus familiaris
- Parameters: dose 50 mg/kg, route oral
Value Kind: CL/F (mL/min/kg)

1. COc1cccc(-c2c(C)n(Cc3c(F)cccc3C(F)(F)F)c(=O)n(C[C@H](NCCCC(=O)[O-])c3ccccc3)c2=O)c1F.[Na+] [ELAGOLIX SODIUM]
14.5

---

- Assay Name: Cmax in mouse
- Format: ADME, organism-based
- Assay Context: in vivo
Value Kind: Cmax (ng/mL)

1) COc1cccc(-c2c(C)n(Cc3c(F)cccc3C(F)(F)F)c(=O)n(C[C@H](NCCCC(=O)[O-])c3ccccc3)c2=O)c1F.[Na+] [ELAGOLIX SODIUM]
741

---

- Assay Name: Half life in rat at 10 mg/kg, iv and 10 mg/kg, po
- Assay type: ADME, organism-based
- Assay Context: in vivo
Value Kind: half-life (min)

1) COc1cccc(-c2c(C)n(Cc3c(F)cccc3F)c(=O)n(C[C@H](N)c3ccccc3)c2=O)c1F
78

---

- Assay Name: Oral bioavailability in rat at 10 mg/kg, iv and 10 mg/kg, po
- Assay type: ADME, organism-based
- Assay Context: in vivo
Value Kind: bioavailability

1) COc1cccc(-c2c(C)n(Cc3c(F)cccc3F)c(=O)n(C[C@H](N)c3ccccc3)c2=O)c1F
3.5%

---

- Assay Name: Cmax in Beagle dog at 50 mg/kg, po
- Assay type: ADME, organism-based, Canis lupus familiaris
- Design: dose 50 mg/kg, route oral
- Assay Context: in vivo
Value Kind: Cmax

1. COc1cccc(-c2c(C)n(Cc3c(F)cccc3C(F)(F)F)c(=O)n(C[C@H](NCCCC(=O)[O-])c3ccccc3)c2=O)c1F.[Na+] [ELAGOLIX SODIUM]
13900 ng/mL

---

- Target Entity: Gonadotropin-releasing hormone receptor (Homo sapiens, UniProt P30968)
- Sequence (P30968 whole entry): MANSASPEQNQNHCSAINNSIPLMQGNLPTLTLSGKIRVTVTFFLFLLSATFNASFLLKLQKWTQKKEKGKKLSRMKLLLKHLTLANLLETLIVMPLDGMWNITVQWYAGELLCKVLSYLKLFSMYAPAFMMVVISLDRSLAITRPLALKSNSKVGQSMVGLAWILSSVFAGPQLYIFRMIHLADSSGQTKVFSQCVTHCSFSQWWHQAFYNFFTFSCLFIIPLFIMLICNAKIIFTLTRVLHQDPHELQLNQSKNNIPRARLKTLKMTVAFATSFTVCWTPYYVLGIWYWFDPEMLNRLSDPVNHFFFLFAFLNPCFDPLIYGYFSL
pKi: −log10 of the molar value.
# pKi annotations
Value Kind: pKi

1) COc1cccc(-c2c(C)n(Cc3c(F)cccc3C(F)(F)F)c(=O)n(C[C@H](NCCCC(=O)[O-])c3ccccc3)c2=O)c1F.[Na+] [ELAGOLIX SODIUM]
9.05
2) COc1cccc(-c2c(C)n(Cc3c(F)cccc3C(F)(F)F)c(=O)n(C[C@@H](c3ccccc3)N(C)CCCC(=O)O)c2=O)c1F
8.43
3) COc1cccc(-c2c(C)n(Cc3c(F)cccc3C(F)(F)F)c(=O)n(C[C@H](NCCC(=O)O)c3ccccc3)c2=O)c1F
7.92
4) COc1cccc(-c2c(C)n(Cc3c(F)cccc3F)c(=O)n(C[C@H](NCCCC(=O)O)c3ccccc3)c2=O)c1F
8.68
